# measuredOn: P2Y purinoceptor 12 (Homo sapiens, UniProt Q9H244)
# Sequence (Q9H244 whole entry): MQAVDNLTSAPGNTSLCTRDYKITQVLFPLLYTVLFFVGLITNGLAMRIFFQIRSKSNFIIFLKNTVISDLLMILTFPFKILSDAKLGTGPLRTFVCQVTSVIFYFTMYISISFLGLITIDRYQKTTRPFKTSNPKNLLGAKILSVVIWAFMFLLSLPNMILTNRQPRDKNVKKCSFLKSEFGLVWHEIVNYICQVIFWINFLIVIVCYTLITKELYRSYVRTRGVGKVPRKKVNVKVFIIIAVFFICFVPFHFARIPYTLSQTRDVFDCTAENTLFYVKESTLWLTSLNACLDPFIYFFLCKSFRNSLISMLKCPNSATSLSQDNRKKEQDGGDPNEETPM
# testProtocol: Displacement of [33P]-2MeS-ADP from recombinant human P2Y12 transfected in HEK cell membrane assessed as inhibition constant incubated for 1 hr by competitive binding assay
# Type: cell membranes
readout: Ki (nM)
Report as a plain number; the unit nM is understood.

Look at this compound and give its reported Ki. NCc1cc2c(N3CCN(C(=O)c4ccc(-c5ccccc5)cc4)CC3)nc(N3CCNC(=O)C3)nc2s1 9

----------
# measuredOn: P2Y purinoceptor 12 (Homo sapiens, UniProt Q9H244)
# testProtocol: Binding affinity to P2Y12 (unknown origin) assessed as inhibition constant
readout: Ki

Under P2Y purinoceptor 12 (Homo sapiens, UniProt Q9H244): Ki value of CCCCCOC(=O)N1CCN(C(=O)[C@H](CCC(=O)O)NC(=O)c2cc(N3CCC(COC)CC3)cc(-c3ccccc3)n2)CC1 ? 3.5 nM
